Data origin, for the record: paper PMC9055250

Would you mind telling me the reported melting point of each entry?

query: Query: melting point; subject: COc1ccc(-c2nc(N)nc(Nc3ccccc3)n2)cc1 [Compound 8]
result: 190 to 192 °C

query: Can you check COc1cc(-c2nc(N)nc(Nc3ccc(Br)cc3)n2)cc(OC)c1OC [Compound 17] next?
result: 217 to 219 °C

query: Can you check COc1cc(-c2nc(N)nc(Nc3ccc(Cl)cc3)n2)cc(OC)c1OC [Compound 16] next?
result: 209 to 211 °C

query: Can you check COc1ccc(-c2nc(N)nc(Nc3ccc(C)cc3)n2)cc1 [Compound 9] next?
result: 186 to 188 °C

query: Can you check CN(C)c1ccc(-c2nc(N)nc(Nc3ccccc3Cl)n2)cc1 [Compound 5] next?
result: 191 to 193 °C

query: Can you check COc1ccc(Nc2nc(N)nc(-c3cc(OC)c(OC)c(OC)c3)n2)cc1 [Compound 19] next?
result: 195 to 197 °C

query: Can you check Cc1ccc(Nc2nc(N)nc(-c3ccc(Cl)cc3)n2)cc1 [Compound 2] next?
result: 179 to 181 °C

query: Can you check Cc1ccc(-c2nc(N)nc(Nc3ccccc3Cl)n2)cc1 [Compound 6] next?
result: 146 to 148 °C

query: Can you check Nc1nc(Nc2ccc(Cl)cc2)nc(-c2ccc(OC(F)(F)F)cc2)n1 [Compound 4] next?
result: 201 to 203 °C

query: Can you check COc1cc(-c2nc(N)nc(Nc3ccc(OC(F)(F)F)cc3)n2)cc(OC)c1OC [Compound 20] next?
result: 179 to 181 °C

query: Can you check Nc1nc(Nc2ccccc2Cl)nc(-c2ccc(C(F)(F)F)cc2)n1 [Compound 3] next?
result: 165 to 167 °C

query: Can you check COc1cc(-c2nc(N)nc(Nc3ccccc3)n2)cc(OC)c1OC [Compound 10] next?
result: 111 to 113 °C

query: Can you check COc1ccccc1Nc1nc(N)nc(-c2cc(OC)c(OC)c(OC)c2)n1 [Compound 13] next?
result: 173 to 175 °C

query: Can you check COc1cc(-c2nc(N)nc(Nc3ccccc3Cl)n2)cc(OC)c1OC [Compound 12] next?
result: 176 to 178 °C

query: Can you check COc1cc(-c2nc(N)nc(Nc3ccccc3F)n2)cc(OC)c1OC [Compound 11] next?
result: 177 to 179 °C

query: Can you check COc1cc(-c2nc(N)nc(Nc3ccc(C(C)C)cc3)n2)cc(OC)c1OC [Compound 21] next?
result: 190 to 192 °C

query: Can you check COc1cc(-c2nc(N)nc(Nc3cccc(C)c3)n2)cc(OC)c1OC [Compound 15] next?
result: 192 to 194 °C

query: Can you check COc1cc(-c2nc(N)nc(Nc3cccc(Cl)c3)n2)cc(OC)c1OC [Compound 14] next?
result: 193 to 195 °C

query: Can you check COc1ccccc1Nc1nc(N)nc(-c2cccc(F)c2)n1 [Compound 1] next?
result: 140 to 142 °C

query: Can you check Cc1ccc(-c2nc(N)nc(Nc3ccc(Cl)cc3)n2)cc1 [Compound 7] next?
result: 202 to 204 °C

* * *

Would you mind telling me the reported GI50 of each entry?
tested on: MDA-MB231 breast cancer cells; assay: MTT in vitro cytotoxicity assay, MDA-MB231; assay type: cell-based; conditions: Homo sapiens, MDA-MB-231; 72 h, MTT; read-out: GI50 ± SD MDA-MB231
Value expressed in µM; do not type the unit.

query: Query: GI50; subject: COc1cc(-c2nc(N)nc(Nc3ccccc3)n2)cc(OC)c1OC [Compound 10]
result: 9.7

query: Can you check COc1cc(-c2nc(N)nc(Nc3ccc(C(C)C)cc3)n2)cc(OC)c1OC [Compound 21] next?
result: 0.04

query: Can you check CN(Cc1cnc2nc(N)nc(N)c2n1)c1ccc(C(=O)N[C@@H](CCC(=O)O)C(=O)O)cc1 [Methotrexate, reference compound] next?
result: 0.01

query: Can you check COc1ccccc1Nc1nc(N)nc(-c2cccc(F)c2)n1 [Compound 1] next?
result: 17.3

* * *

Would you mind telling me the reported GI50 of each entry?
system: MDA-MB231 breast cancer cells; test: MTT in vitro cytotoxicity assay, MDA-MB231; type: cell-based; conditions: Homo sapiens, MDA-MB-231; 72 h, MTT; read-out: GI50 ± SD MDA-MB231
Value expressed in nM; do not type the unit.

query: Notebook entry, MDA-MB231 breast cancer cells assay: GI50 of "Nc1nc(Nc2ccc(Cl)cc2)nc(-c2ccc(OC(F)(F)F)cc2)n1" = ?
result: 16700

query: Can you check "COc1cc(-c2nc(N)nc(Nc3ccc(Cl)cc3)n2)cc(OC)c1OC" next?
result: 7

query: Can you check "COc1cc(-c2nc(N)nc(Nc3ccc(Br)cc3)n2)cc(OC)c1OC" next?
result: 8

query: Can you check Cc1cn(-c2cc(NC(=O)c3ccc(C)c(Nc4nccc(-c5cccnc5)n4)c3)cc(C(F)(F)F)c2)cn1 [Nilotinib, reference compound] next?
result: 40

* * *

tested on: MDA-MB231 breast cancer cells; assay: MTT in vitro cytotoxicity assay, MDA-MB231; type: cell-based; settings: Homo sapiens, MDA-MB-231; 72 h, MTT; read-out: GI50 ± SD MDA-MB231
Measured GI50 determines class: low group: < 2 µM; middle group: ≥ 2 µM and < 9 µM; high group: ≥ 9 µM

query: Quick check: band for "COc1ccc(Nc2nc(N)nc(-c3cc(OC)c(OC)c(OC)c3)n2)cc1"
result: low group

query: Can you check "COc1cc(-c2nc(N)nc(Nc3ccccc3Cl)n2)cc(OC)c1OC" next?
result: high group

query: Can you check "COc1ccc(-c2nc(N)nc(Nc3ccc(C)cc3)n2)cc1" next?
result: middle group

query: Can you check "Cc1ccc(Nc2nc(N)nc(-c3ccc(Cl)cc3)n2)cc1" next?
result: high group

query: Can you check "COc1cc(-c2nc(N)nc(Nc3ccc(OC(F)(F)F)cc3)n2)cc(OC)c1OC" next?
result: low group

query: Can you check "COc1cc(-c2nc(N)nc(Nc3ccc(C)cc3)n2)cc(OC)c1OC" next?
result: low group

query: Can you check "COc1ccc(-c2nc(N)nc(Nc3ccccc3)n2)cc1" next?
result: middle group

query: Can you check "Cc1ccc(-c2nc(N)nc(Nc3ccc(Cl)cc3)n2)cc1" next?
result: high group

query: Can you check "Cc1ccc(-c2nc(N)nc(Nc3ccccc3Cl)n2)cc1" next?
result: middle group

query: Can you check "COc1cc(-c2nc(N)nc(Nc3ccccc3F)n2)cc(OC)c1OC" next?
result: middle group

query: Can you check "CN(C)c1ccc(-c2nc(N)nc(Nc3ccccc3Cl)n2)cc1" next?
result: low group

query: Can you check "Nc1nc(Nc2ccccc2Cl)nc(-c2ccc(C(F)(F)F)cc2)n1" next?
result: high group

query: Can you check "COc1ccccc1Nc1nc(N)nc(-c2cc(OC)c(OC)c(OC)c2)n1" next?
result: middle group

query: Can you check "COc1cc(-c2nc(N)nc(Nc3cccc(C)c3)n2)cc(OC)c1OC" next?
result: middle group
